All figures here come from patent US20200377459A1.

# SYSTEM UNDER TEST: human Nav1.7 channels (Homo sapiens)
# Construct: expressed in transfected cells
# Sequence (Q15858 whole entry): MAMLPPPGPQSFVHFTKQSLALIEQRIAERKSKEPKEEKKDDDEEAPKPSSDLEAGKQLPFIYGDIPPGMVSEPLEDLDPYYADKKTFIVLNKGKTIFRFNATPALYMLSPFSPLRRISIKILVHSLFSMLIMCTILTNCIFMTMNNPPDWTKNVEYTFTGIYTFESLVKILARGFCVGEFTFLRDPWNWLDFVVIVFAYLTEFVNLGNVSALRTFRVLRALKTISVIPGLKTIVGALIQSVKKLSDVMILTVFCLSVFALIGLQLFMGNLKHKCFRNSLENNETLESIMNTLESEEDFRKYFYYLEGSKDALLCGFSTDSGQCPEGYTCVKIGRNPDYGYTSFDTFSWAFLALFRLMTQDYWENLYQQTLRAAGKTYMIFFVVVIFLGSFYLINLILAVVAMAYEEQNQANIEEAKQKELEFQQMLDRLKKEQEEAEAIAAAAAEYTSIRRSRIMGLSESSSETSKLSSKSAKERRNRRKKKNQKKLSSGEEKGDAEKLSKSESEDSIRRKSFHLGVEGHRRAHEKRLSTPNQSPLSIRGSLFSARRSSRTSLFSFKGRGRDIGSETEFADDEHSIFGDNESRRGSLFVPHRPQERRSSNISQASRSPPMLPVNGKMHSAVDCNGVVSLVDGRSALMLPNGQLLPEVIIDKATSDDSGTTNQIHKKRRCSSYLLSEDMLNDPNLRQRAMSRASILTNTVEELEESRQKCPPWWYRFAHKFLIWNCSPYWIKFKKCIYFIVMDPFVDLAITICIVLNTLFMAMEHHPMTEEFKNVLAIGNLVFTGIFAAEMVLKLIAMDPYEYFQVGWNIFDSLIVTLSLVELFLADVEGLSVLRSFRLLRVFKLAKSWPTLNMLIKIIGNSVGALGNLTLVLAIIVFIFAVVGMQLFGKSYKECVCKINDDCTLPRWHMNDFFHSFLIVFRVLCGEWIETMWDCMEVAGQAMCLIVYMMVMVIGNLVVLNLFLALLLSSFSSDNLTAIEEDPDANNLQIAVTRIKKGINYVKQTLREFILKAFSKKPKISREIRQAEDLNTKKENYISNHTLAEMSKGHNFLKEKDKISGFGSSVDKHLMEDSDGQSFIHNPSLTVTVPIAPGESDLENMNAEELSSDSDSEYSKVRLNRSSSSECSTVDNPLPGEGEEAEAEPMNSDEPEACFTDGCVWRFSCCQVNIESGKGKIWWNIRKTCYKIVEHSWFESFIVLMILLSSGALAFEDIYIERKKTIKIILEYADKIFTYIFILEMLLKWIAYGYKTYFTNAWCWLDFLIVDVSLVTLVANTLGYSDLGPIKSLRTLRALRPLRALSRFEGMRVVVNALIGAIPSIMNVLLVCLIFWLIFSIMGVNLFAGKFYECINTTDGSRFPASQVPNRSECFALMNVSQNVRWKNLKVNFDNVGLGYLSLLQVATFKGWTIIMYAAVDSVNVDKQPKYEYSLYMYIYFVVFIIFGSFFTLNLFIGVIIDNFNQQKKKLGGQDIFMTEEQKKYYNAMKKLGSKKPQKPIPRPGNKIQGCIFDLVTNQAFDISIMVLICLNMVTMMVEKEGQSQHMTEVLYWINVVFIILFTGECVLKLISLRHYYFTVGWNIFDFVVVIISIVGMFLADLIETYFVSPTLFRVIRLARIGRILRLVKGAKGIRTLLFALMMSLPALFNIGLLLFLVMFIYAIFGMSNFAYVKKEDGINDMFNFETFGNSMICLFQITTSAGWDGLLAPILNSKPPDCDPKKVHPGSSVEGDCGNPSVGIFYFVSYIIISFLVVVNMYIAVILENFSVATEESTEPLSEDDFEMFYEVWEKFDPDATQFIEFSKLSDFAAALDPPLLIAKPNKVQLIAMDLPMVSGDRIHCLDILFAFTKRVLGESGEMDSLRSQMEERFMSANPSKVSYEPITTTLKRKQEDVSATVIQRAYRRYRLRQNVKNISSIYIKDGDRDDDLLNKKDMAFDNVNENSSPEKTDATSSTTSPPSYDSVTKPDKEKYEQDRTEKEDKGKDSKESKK
# EXPERIMENT NOTES: Whole-cell patch clamp, use-dependent block of sodium current, drug applied intracellularly or externally
# Assay type: cell-based
PROPERTY MEASURED: inhibition at 100 µM (%)

* CC[N+]1(CC)CCCCC1C(=O)Nc1c(C)cccc1C (stereo not drawn) [Compound 15] | 40
* CCC(C(=O)Nc1c(C)cccc1C)[N+]1(CC)CCCC1 (stereo not drawn) [Compound 3] | 78
* CCC[N+](CC)(CC)C(CC)C(=O)Nc1c(C)cccc1C (stereo not drawn) [Compound 21, N-ethyl etidocaine] | 97
* Cc1cccc(C)c1NC(=O)C(C)(C)[N+]1(C)CCCCC1 [Compound 5] | 34
* CC[N+](CC)(CC)CC(=O)Nc1ccc(N)cc1 [Compound 22] | 0
* Cc1cccc(C)c1NC(=O)C(C)[N+]1(C)CCCC1 (stereo not drawn) [Compound 1] | 40
* CC[N+](CC)(CC)CCC(=O)Nc1c(C)cccc1C [Compound 24] | 15
* CC[N+](CC)(CC)CCNC(=O)c1c(C)cccc1C [Compound 25] | 3
* CC[N+](CC)(CC)CC(=O)Nc1c(C)cc(N)cc1C [Compound 23] | 56
* CCC(C(=O)Nc1c(C)cccc1C)[N+]1(CC)CCCCC1 (stereo not drawn) [Compound 6] | 83
* Cc1cccc(C)c1NC(=O)C(C)(C)[N+]1(C)CCCC1 [Compound 2] | 42
* Cc1cc(F)cc(C)c1NC(=O)C1CCCC[N+]1(C)C (stereo not drawn) [Compound 16] | 70
* Cc1cccc(C)c1NC(=O)C1CCC[N+]1(C)C (stereo not drawn) [Compound 13] | 33
* CC[N+]1(CC)CCCC1C(=O)Nc1c(C)cccc1C (stereo not drawn) [Compound 14] | 62
* Cc1cccc(C)c1NC(=O)C(C)[N+]1(C)CCCCC1 (stereo not drawn) [Compound 4] | 43
